# MEASURED ON: African green monkey C5 (African green monkey)
# EXPERIMENT SUMMARY: cell-based or functional assay
MEASUREMENT NAME: AGM CP % Max Inhibition, hemolysis assay, 5% serum (%)
The figure you give is taken to be in %; do not add the unit.

Challenge: Form field: reported AGM CP % Max Inhibition, hemolysis assay, 5% serum of H4H11686N (antibody, human IgG4, V domains shown, tested with H4H prefix (human IgG4 Fc with S108P hinge mutation); also called H2M11686N) VH: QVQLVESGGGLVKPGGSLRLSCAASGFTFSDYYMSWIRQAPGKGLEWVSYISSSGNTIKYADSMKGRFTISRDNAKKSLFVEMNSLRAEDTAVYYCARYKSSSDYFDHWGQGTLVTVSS VL: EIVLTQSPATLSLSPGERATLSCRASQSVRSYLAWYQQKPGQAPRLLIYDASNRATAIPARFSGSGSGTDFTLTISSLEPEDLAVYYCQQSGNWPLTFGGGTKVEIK
Response given: 49.3
